FYI, the data here is from patent US20160244529A1.

# targetOfAssay: T1, human Ig1,2 TrkA (recombinant D4-D5 domain of human TrkA receptor) (human, UniProt P04629 191-392)
# T1 construct: also called hTrkA Ig1,2; TrkA Ig1,2
# T1 chain: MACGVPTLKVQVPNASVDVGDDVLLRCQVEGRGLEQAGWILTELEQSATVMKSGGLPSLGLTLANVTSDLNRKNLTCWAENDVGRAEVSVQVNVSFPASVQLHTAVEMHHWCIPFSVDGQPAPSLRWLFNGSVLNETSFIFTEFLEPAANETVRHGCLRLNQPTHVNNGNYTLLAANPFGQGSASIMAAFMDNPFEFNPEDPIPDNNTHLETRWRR
# assayDetails: SPR (Biacore X-100); scFv immobilised on CM5 chip, human Ig1,2 TrkA injected
Assignment: determine reported kon for the given binders.
Entry rule: numbers only, all in M⁻¹ s⁻¹.

Requested read-out: kon. Entry: anti-TrkA scFv CRB0036 (scFv, From mSPLINT selection) scFv: DIVMTQAAPSVPVTPGESVSISCRSSKSLLHSSGITSLYWYLQRPGQSPQLPIYRMSSLASGVPDRFSVSGSGTAFTLRISRVEAEDVGVYYCMQHLEYPLTFGAGTKLELKRSGGSTSGSGKPGSGEGSSGTQVQLQQSGAELLKPGASVKISCKATGYTFSNYWIEWVKQRPGHGLEWIGEILPGSGSAHYSEKFKDKATFTADTSSNTAYMQLSSLTSEDSAVYFCTRSPPNPGYWGQGTSVTVSS
2730

Requested read-out: kon. Entry: anti-TrkA scFv CRB0022 (scFv, From mSPLINT selection) scFv: DIVLTQSPALMSASPGEKVTMTCSASSSVSYMYWYQQKPRSSPKPWIYLTSNLASGVPARFSGSGSGTSYSLTISSMEAEDAATYYCQQWSSNPYTFGGRTRLEIKPSGGSTSGSGKPGSGEDSSGAQVQLQQSGAELVKPGASVELSCTASGFNIKDTYMHWVKQRPEQGLEWIGGIDPANGNTIYVPKFQGKATITADTSSNTAYLQLSSLTSEDTAVYYCARGGYDFDYAMDYWGQGTSVTVSS
9190
